Test system: NCI-H522 lung
Method description: NCI-60 one-dose screen, 48 h
Cond: 10 µM unless noted
About 83,000 compounds went through this panel and 20% of them were active in at least one assay; those are over-represented in the sample as a whole. Active and inactive are the calls of the source. The calls were made as follows: active = growth percent below 10; inactive = the rest.
Would you mind answering with one of these outcomes? YES = active, NO = inactive

COc1ccc2c(c1)OC1=C(C(=O)OC1)C2c1cc(OC)c(OC)c(OC)c1 (stereo not drawn) ... YES

input: Tell me the assay call for O=C1CCCN1c1cccc2cccnc12 please.
output: NO

input: Try this compound too: COc1ccc2c(c1)c(CC(=O)NCCOCCOCC(=O)Nc1ccc(OC)c(C(N)=O)c1O)c(C)n2C(=O)c1ccc(Cl)cc1
output: NO

Provenance of the data: PubChem BioAssay (NCI)
